TARGET: TNFα / TNFα receptor (TNFα R1/Fc) (Homo sapiens, UniProt P01375)
Construct: purchased R&D Systems
Sequence (P01375 77-233 limits assumed, species assumed): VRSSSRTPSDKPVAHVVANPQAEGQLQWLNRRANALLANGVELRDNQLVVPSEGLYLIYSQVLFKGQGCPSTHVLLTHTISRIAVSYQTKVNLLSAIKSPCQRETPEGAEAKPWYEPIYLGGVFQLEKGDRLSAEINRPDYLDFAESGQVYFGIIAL
TEST_DESCRIPTION: Inhibition of binding of TNFα to the TNFα receptor (plate ELISA competition)
REPORTED_CONDITIONS: Table 2; read-out: Activity (IC50, inhibition of TNFα binding to TNFα R1/Fc)
pIC50: −log10 of the molar value. Numbered stars: 1 amine (or outer) side, 2 acyl side, 3 side chain; on linkers, the order of the positions; unused ones are H or OH. Bridge positions count the residues as written; N and C are the ends. Square brackets hold non-standard residues; d marks the D form. Peptide text beside a SMILES is read from it. * marks the point of attachment. Bip = N[C@@H](Cc1ccc(-c2ccccc2)cc1)C(=O)O; Phe(4-NH2) = Nc1ccc(C[C@H](N)C(=O)O)cc1; d(hPhe) = N[C@H](CCc1ccccc1)C(=O)O; d2Thi = N[C@H](Cc1cccs1)C(=O)O; Suc = O=C(CCC(=O)[*:2])[*:1]; Nicotinoyl = O=C(c1cccnc1)*; βAla = NCCC(=O)O
MEASURE: pIC50

O=C1COc2ccc(cc2)C[C@@H](C(=O)O)NC(=O)[C@H](CCc2ccccc2)NC(=O)[C@@H](Cc2ccc(-c3ccc(F)cc3)cc2)NC(=O)[C@H](Cc2cccs2)N1 [Compound 655]    > 5.00

Incoming: Which pIC50 is reported for this molecule? O=C(O)CCNC(=O)[C@@H]1Cc2ccc(cc2)NC(=O)CCC(=O)N[C@H](Cc2ccccc2)C(=O)N[C@@H](Cc2ccc(-c3ccccc3)cc2)C(=O)N[C@H](CCc2ccccc2)C(=O)N1 [Compound 459] ([dF][Bip][d(hPhe)][Phe(4-NH2)][βAla]-OH; linker N-4 via Suc)
Outgoing: < 4.00

Incoming: Which pIC50 is reported for this molecule? O=C1CN(Cc2ccccc2)C(=O)[C@@H](Cc2ccc(-c3ccccc3)cc2)NC(=O)[C@H](Cc2cccs2)NC(=O)COc2ccc(cc2)C[C@@H](C(=O)O)N1 [Compound 253]
Outgoing: < 4.00

Incoming: Which pIC50 is reported for this molecule? O=C1CCC(=O)N[C@H](Cc2cccs2)C(=O)N[C@@H](CCCCNC(=O)c2cccnc2)C(=O)N[C@H](Cc2ccccc2)C(=O)N[C@H](C(=O)O)Cc2ccc(cc2)N1 [Compound 96] ([d2Thi]K(Nicotinoyl)[dF][Phe(4-NH2)]-OH; linker N-4 via Suc)
Outgoing: < 4.00

---

TARGET: TNFα / TNFα receptor (TNFα R1/Fc) (Homo sapiens)
Construct: purchased R&D Systems
TEST_DESCRIPTION: Inhibition of binding of TNFα to the TNFα receptor (plate ELISA competition)
REPORTED_CONDITIONS: Table 2; read-out: Activity (IC50, inhibition of TNFα binding to TNFα R1/Fc)
Numbered stars: 1 amine (or outer) side, 2 acyl side, 3 side chain; on linkers, the order of the positions; unused ones are H or OH. Bridge positions count the residues as written; N and C are the ends. Square brackets hold non-standard residues; d marks the D form. Peptide text beside a SMILES is read from it. Phe(4-NH2) = Nc1ccc(C[C@H](N)C(=O)O)cc1; d2Thi = N[C@H](Cc1cccs1)C(=O)O; Suc = O=C(CCC(=O)[*:2])[*:1]
MEASURE: IC50

Sample answers from the record:
O=C(O)[C@H](Cc1ccccc1)NC(=O)[C@H]1Cc2ccc(cc2)NC(=O)[C@H](O)[C@@H](O)C(=O)N[C@H](Cc2cccs2)C(=O)N[C@@H](Cc2ccc(Br)cc2)C(=O)N[C@H](Cc2ccccc2)C(=O)N1    > 100 µM
O=C1COc2ccc(cc2)C[C@@H](C(=O)O)NC(=O)[C@@H](CCc2ccccc2)NC(=O)[C@H](Cc2ccc(Cl)cc2Cl)NC(=O)[C@@H](CCc2ccccc2)N1    10 to 30 µM
CC(=O)NCCCC[C@@H]1NC(=O)[C@@H](Cc2ccc(-c3ccccc3)cc2)NC(=O)[C@H](Cc2cccs2)NC(=O)COc2ccc(cc2)C[C@@H](C(=O)O)NC1=O    10 to 30 µM
C[C@@H]1NC(=O)[C@@H](Cc2cccs2)NC(=O)CCC(=O)Nc2ccc(cc2)C[C@@H](C(=O)O)NC(=O)[C@@H](Cc2ccccc2)NC1=O [Compound 45] ([d2Thi]A[dF][Phe(4-NH2)]-OH; linker N-4 via Suc)    > 100 µM
O=C(NCS(=O)(=O)O)[C@@H]1Cc2ccc(cc2)NC(=O)[C@H](O)[C@@H](O)C(=O)N[C@H](Cc2cccs2)C(=O)N[C@@H](Cc2ccc(-c3ccccc3)cc2)C(=O)N[C@H](CCc2ccccc2)C(=O)N1    < 10 µM

Moving on to another compound below.
Incoming: # query: IC50 | item O=C(O)CCNC(=O)[C@@H]1Cc2ccc(cc2)OCC(=O)N[C@@H](Cc2cccs2)C(=O)N[C@H](Cc2ccc(-c3ccccc3)cc2)C(=O)N[C@@H](CCc2ccccc2)C(=O)N1 | system: TNFα / TNFα receptor (TNFα R1/Fc) (Homo sapiens)
Outgoing: < 10 µM
